# EXPERIMENTAL SYSTEM: human 5-HT6 receptor (Homo sapiens, UniProt P50406)
# Construct: expressed in transfected cells
# Sequence (P50406 whole entry): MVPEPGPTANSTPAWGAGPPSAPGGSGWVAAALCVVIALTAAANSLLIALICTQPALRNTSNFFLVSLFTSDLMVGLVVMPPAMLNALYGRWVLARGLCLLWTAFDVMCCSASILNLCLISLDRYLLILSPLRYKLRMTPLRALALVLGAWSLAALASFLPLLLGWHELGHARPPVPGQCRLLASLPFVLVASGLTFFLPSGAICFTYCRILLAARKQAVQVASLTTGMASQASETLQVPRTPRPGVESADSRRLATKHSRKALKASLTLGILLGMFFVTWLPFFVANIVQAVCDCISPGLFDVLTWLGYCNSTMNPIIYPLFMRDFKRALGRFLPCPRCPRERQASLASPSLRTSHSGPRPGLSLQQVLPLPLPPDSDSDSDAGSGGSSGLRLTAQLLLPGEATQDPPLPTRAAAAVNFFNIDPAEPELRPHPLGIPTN
# ASSAY: GPCR radioligand binding assay, [3H]-LSD displacement, HEK293 membranes
# TEST CONDITIONS: 5-HT6; replicate exp_2
Would you mind sorting the entries by %inh 5-HT6 exp_2 according to these classes? lower bin: < 20%; middle bin: ≥ 20% and < 40%; upper bin: ≥ 40%

> print(dat)
                                    compound                       experimental.system  classification
 1               Fc1ccc2c(C3CCNCC3)c[nH]c2c1  human 5-HT6 receptor (Homo sapiens, UniProt P50406)       upper bin
 2    CC(CN)N1CCc2sccc2C1 (centres unmarked)  human 5-HT6 receptor (Homo sapiens, UniProt P50406)       lower bin
 3                               Cc1cc(N)no1  human 5-HT6 receptor (Homo sapiens, UniProt P50406)      middle bin
 4                      O=C1CCN(c2ccccn2)CC1  human 5-HT6 receptor (Homo sapiens, UniProt P50406)       lower bin
 5                    O=C(CN1CCNCC1)c1ccccc1  human 5-HT6 receptor (Homo sapiens, UniProt P50406)       upper bin
 6                    Cc1nccn1Cc1cccc(C#N)c1  human 5-HT6 receptor (Homo sapiens, UniProt P50406)       upper bin
 7               CCc1ccc(NC2=NCCCS2)cc1 [D2]  human 5-HT6 receptor (Homo sapiens, UniProt P50406)       lower bin
 8                           O=C1CCCc2occc21  human 5-HT6 receptor (Homo sapiens, UniProt P50406)      middle bin
 9  O=C(O)C1CCCN(C(=O)N2CCCC2)C1 (centres unmarked)  human 5-HT6 receptor (Homo sapiens, UniProt P50406)      middle bin
10                  c1ccc2c(N3CCNCC3)ccnc2c1  human 5-HT6 receptor (Homo sapiens, UniProt P50406)       upper bin
11                       Oc1ccc(-n2cncn2)cc1  human 5-HT6 receptor (Homo sapiens, UniProt P50406)      middle bin
12                 O=C(O)c1cccc(Nc2ncccn2)c1  human 5-HT6 receptor (Homo sapiens, UniProt P50406)       upper bin

====

# EXPERIMENTAL SYSTEM: human 5-HT6 receptor (Homo sapiens)
# Construct: expressed in transfected cells
# ASSAY: GPCR radioligand binding assay, [3H]-LSD displacement, HEK293 membranes
# TEST CONDITIONS: 5-HT6; replicate exp_2
Label Met when %inh 5-HT6 exp_2 is strictly below 30%; otherwise label Not met.

> print(dat)
   compound.structure.string  classification
1        Oc1ccc(C2CCNCC2)cc1         Not met
2   N[C@H]1c2ccccc2C[C@H]1CO             Met
3   O=c1[nH]ncc2c1oc1ccccc12         Not met
4         FC1(F)CNCC(F)(F)O1         Not met
5       NCC1(c2ccccc2)CCOCC1             Met
6           c1cnc2c(c1)NCCC2             Met
7         CCN(CC)c1cccc(C)c1         Not met
